System: PM (RR -1)
Assay protocol: MIC determination
Type: cell-based, Proteus mirabilis
Study conditions: CAMH broth, 20 μM Apo-Transferrin, 37° C., 18 hours
Catalogue of Mimimum Inhibitory Concentrations, PM (RR -1) values
Recorded metric: Mimimum Inhibitory Concentrations, PM (RR -1)

| Molecule | Experimental result |
| --- | --- |
| CC(C)(O/N=C(\C(=O)N[C@@H]1C(=O)N2C(C(=O)O)=C(C=Cc3ccc(C[n+]4ccc5cc(O)c(O)cc5c4)cc3)CS[C@H]12)c1csc(N)n1)C(=O)O (mixture of isomers) [Compound 435] | ≤0.06 microgram/mL |
| CC(C)(O/N=C(\C(=O)N[C@@H]1C(=O)N2C(C(=O)O)=C(C=Cc3ccc(C[N+]4(C)CCc5ccc(O)c(O)c5C4)cc3)CS[C@H]12)c1csc(N)n1)C(=O)O (mixture of isomers) [Compound 442] | ≤0.06 microgram/mL |
| CC(C)(O/N=C(\C(=O)N[C@@H]1C(=O)N2C(C(=O)O)=C(C=Cc3ccc(C[N+]4(C)Cc5cc(O)c(O)c(Cl)c5C4)cc3)CS[C@H]12)c1csc(N)n1)C(=O)O (mixture of isomers) [Compound 432] | ≤0.06 microgram/mL |

----------
Catalogue of MIC values
Tested on: E. coli J53 Alone
Assay protocol: MIC determination, isogenic E. coli strains
Type: cell-based
Study conditions: Escherichia coli, J53ALONE, 18 h, read-out: Mimimum Inhibitory Concentrations, J53 Alone

| Molecule | MIC [µg/mL] |
| --- | --- |
| CC(C)(O/N=C(\C(=O)N[C@@H]1C(=O)N2C(C(=O)O)=C(C=Cc3ccc(C[N+](C)(C)Cc4ccc(O)c(O)c4Cl)cc3)CS[C@H]12)c1csc(N)n1)C(=O)O (mixture of isomers) | 0.25 |
| Cn1c[n+](Cc2ccc(C=CC3=C(C(=O)O)N4C(=O)[C@@H](NC(=O)/C(=N\OC(C)(C)C(=O)O)c5csc(N)n5)[C@H]4SC3)cc2)cc1C(=O)Nc1ccc(O)c(O)c1 (mixture of isomers) | 0.5 |
| CC(C)(O/N=C(\C(=O)N[C@@H]1C(=O)N2C(C(=O)O)=C(C=Cc3ccc(C[N+]4(C)CCc5c(ccc(O)c5O)C4)cc3)CS[C@H]12)c1csc(N)n1)C(=O)O (mixture of isomers) | 0.25 |

----------
Catalogue of Mimimum Inhibitory Concentrations, KPC-2 values
Test system: Isogenic E. coli J58 strain carrying KPC-2
Assay protocol: MIC determination, isogenic E. coli strains
Type: cell-based
Study conditions: isogenic E. coli strain, KPC-2; CAMH broth, 20 μM Apo-Transferrin, 37° C., 18 hours
Recorded metric: Mimimum Inhibitory Concentrations, KPC-2 (microgram/mL)

| Molecule | Endpoint unit | Censoring sign | Experimental result |
| --- | --- | --- | --- |
| CC(C)(O/N=C(\C(=O)N[C@@H]1C(=O)N2C(C(=O)O)=C(C=Cc3ccc(C[n+]4ccc5cc(O)c(O)cc5c4)cc3)CS[C@H]12)c1csc(N)n1)C(=O)O (mixture of isomers) | microgram/mL | = | 0.25 |
| CC(C)(O/N=C(\C(=O)N[C@@H]1C(=O)N2C(C(=O)O)=C(C=Cc3ccc(C[n+]4ccc(O)c(O)c4)cc3)CS[C@H]12)c1csc(N)n1)C(=O)O (mixture of isomers) | microgram/mL | = | 8 |
| CC(C)(O/N=C(\C(=O)N[C@@H]1C(=O)N2C(C(=O)O)=C(C=Cc3ccc(C[N+]4(C)CCc5cc(O)c(O)cc5C4)cc3)CS[C@H]12)c1nsc(N)n1)C(=O)O (mixture of isomers) | microgram/mL | = | 16 |
| CC(C)(O/N=C(\C(=O)N[C@@H]1C(=O)N2C(C(=O)O)=C(C=Cc3ccc(C[N+]4(C5CCC5)CCc5ccc(O)c(O)c5C4)cc3)CS[C@H]12)c1csc(N)n1)C(=O)O (mixture of isomers) | microgram/mL | = | 8 |
| CO/N=C(\C(=O)N[C@@H]1C(=O)N2C(C(=O)O)=C(C=Cc3ccc(C[n+]4ccc(OC)c(OC)c4)cc3[N+](=O)[O-])CS[C@H]12)c1csc(N)n1 (mixture of isomers) | microgram/mL | > | 64 |

----------
Tested on: E. coli J53 Alone
Assay protocol: MIC determination, isogenic E. coli strains
Assay type: cell-based
Study conditions: J53 Alone, Table 4-2; CAMH broth, 20 μM Apo-Transferrin, 37° C., 18 hours
Recorded metric: Mimimum Inhibitory Concentrations, J53 Alone

| Compound | Experimental result |
| --- | --- |
| CC(C)(O/N=C(\C(=O)N[C@@H]1C(=O)N2C(C(=O)O)=C(C=Cc3ccc(C[n+]4ccc5cc(O)c(O)cc5c4)cc3)CS[C@H]12)c1csc(N)n1)C(=O)O (mixture of isomers) [Compound 435] | ≤0.06 microgram/mL |
| CC(C)(O/N=C(\C(=O)N[C@@H]1C(=O)N2C(C(=O)O)=C(C=Cc3ccc(C[N+](C)(C)Cc4cc(O)c(O)c(Cl)c4)cc3)CS[C@H]12)c1csc(N)n1)C(=O)O (mixture of isomers) [Compound 436] | 0.13 microgram/mL |
| CC(C)(O/N=C(\C(=O)N[C@@H]1C(=O)N2C(C(=O)O)=C(C=Cc3ccc(C[N+]4(C)CCc5c(Cl)c(O)c(O)c(Cl)c5C4)cc3)CS[C@H]12)c1csc(N)n1)C(=O)O (mixture of isomers) [Compound 429] | ≤0.06 microgram/mL |

----------
Test system: Isogenic E. coli J58 strain carrying VIM-2
Assay protocol: MIC determination, isogenic E. coli strains
Type: cell-based
Study conditions: Escherichia coli, 18 h, read-out: Mimimum Inhibitory Concentrations, VIM-2
Catalogue of MIC values

| Molecule | Endpoint unit | MIC |
| --- | --- | --- |
| CC(C)(O/N=C(\C(=O)N[C@@H]1C(=O)N2C(C(=O)O)=C(C=Cc3ccc(C[N+](C)(C)CCc4ccc(O)c(O)c4)cc3)CS[C@H]12)c1csc(N)n1)C(=O)O (mixture of isomers) | µg/mL | 0.25 |
| Cn1c[n+](Cc2ccc(C=CC3=C(C(=O)O)N4C(=O)[C@@H](NC(=O)/C(=N\OC(C)(C)C(=O)O)c5csc(N)n5)[C@H]4SC3)cc2)c2cc(O)c(O)cc21 (mixture of isomers) | µg/mL | 1 |
| CC(C)(O/N=C(\C(=O)N[C@@H]1C(=O)N2C(C(=O)O)=C(C=Cc3ccc(C[N+]4(C)CCc5cc(O)c(O)cc5C4)cc3[N+](=O)[O-])CS[C@H]12)c1csc(N)n1)C(=O)O (mixture of isomers) | µg/mL | 0.25 |

----------
Test system: Pseudomonas aeruginosa PA (URMC-3)
Assay protocol: MIC determination
Format: cell-based
Study conditions: Pseudomonas aeruginosa; PA (URMC-3); CAMH broth, 20 μM Apo-Transferrin, 37° C., 18 hours; read-out: Minimum Inhibitory Concentrations, PA (URMC-3)
Experimental: Sterile technique was used throughout these experiments. Suspensions of organisms were removed from storage (−80° C.) and partially thawed. […] For each organism the MIC was determined by identifying the transparent well with the lowest test compound concentration.
Recorded metric: MIC (µg/mL)

| Compound | System under test | Recorded metric | Censoring sign | Experimental result |
| --- | --- | --- | --- | --- |
| CC(C)(O/N=C(\C(=O)N[C@@H]1C(=O)N2C(C(=O)O)=C(C=Cc3ccc(C[n+]4ccc(NC(=O)c5ccc(O)c(O)c5)cc4)cc3)CS[C@H]12)c1csc(N)n1)C(=O)O (mixture of isomers) | Pseudomonas aeruginosa PA (URMC-3) | MIC | = | 0.25 |
| Cc1c[n+](Cc2ccc(C=CC3=C(C(=O)O)N4C(=O)[C@@H](NC(=O)/C(=N\OC(C)(C)C(=O)O)c5csc(N)n5)[C@H]4SC3)cc2)ccc1-c1ccc(O)c(O)c1 (mixture of isomers) | Pseudomonas aeruginosa PA (URMC-3) | MIC | ≤ | 0.06 |
| CC(C)(O/N=C(\C(=O)N[C@@H]1C(=O)N2C(C(=O)O)=C(C=Cc3ccc(C[N+](C)(C)Cc4cc(O)c(O)c(Cl)c4)cc3)CS[C@H]12)c1csc(N)n1)C(=O)O (mixture of isomers) | Pseudomonas aeruginosa PA (URMC-3) | MIC | = | 64 |

----------
Test system: Isogenic E. coli J58 strain carrying SHV-1
Assay protocol: MIC determination, isogenic E. coli strains
Type: cell-based
Study conditions: isogenic E. coli strain, SHV-1; CAMH broth, 20 μM Apo-Transferrin, 37° C., 18 hours
Catalogue of Mimimum Inhibitory Concentrations, SHV-1 values
Recorded metric: Mimimum Inhibitory Concentrations, SHV-1 (microgram/mL)

| Compound | System under test | Censoring sign | Experimental result |
| --- | --- | --- | --- |
| CO/N=C(\C(=O)N[C@@H]1C(=O)N2C(C(=O)O)=C(C=Cc3ccc(C[n+]4ccc(OC)c(OC)c4)cc3[N+](=O)[O-])CS[C@H]12)c1csc(N)n1 (mixture of isomers) | Isogenic E. coli J58 strain carrying SHV-1 | > | 64 |
| CC(C)(O/N=C(\C(=O)N[C@@H]1C(=O)N2C(C(=O)O)=C(C=Cc3ccc(C[n+]4ccc5cc(O)c(O)cc5c4)cc3)CS[C@H]12)c1csc(N)n1)C(=O)O (mixture of isomers) | Isogenic E. coli J58 strain carrying SHV-1 | = | 0.13 |
| CC(C)(O/N=C(\C(=O)N[C@@H]1C(=O)N2C(C(=O)O)=C(C=Cc3ccc(C[N+]4(C)CCc5cc(O)c(O)cc5C4)cc3)CS[C@H]12)c1nsc(N)n1)C(=O)O (mixture of isomers) | Isogenic E. coli J58 strain carrying SHV-1 | = | 2 |
| CC(C)(O/N=C(\C(=O)N[C@@H]1C(=O)N2C(C(=O)O)=C(C=Cc3ccc(C[N+]4(C5CCC5)CCc5ccc(O)c(O)c5C4)cc3)CS[C@H]12)c1csc(N)n1)C(=O)O (mixture of isomers) | Isogenic E. coli J58 strain carrying SHV-1 | = | 1 |
| CC(C)(O/N=C(\C(=O)N[C@@H]1C(=O)N2C(C(=O)O)=C(C=Cc3ccc(C[n+]4ccc(O)c(O)c4)cc3)CS[C@H]12)c1csc(N)n1)C(=O)O (mixture of isomers) | Isogenic E. coli J58 strain carrying SHV-1 | = | 1 |

Provenance of the data: patent US20190100534A1
